- System: SNB-19 CNS
- procedure.summary: NCI-60 one-dose screen, 48 h
- stated.conditions: 10 µM unless noted
Compounds without any hit were thinned out: in the full panel of roughly 83,000, 20% have a hit. Calls of active or inactive are those of the source. Rule for the calls: active = growth percent below 10; inactive = the rest.
Write down the outcome that applies. Available outcomes: true (active), false (inactive)

// known answers, use as guide
COc1cc([N+](=O)[O-])c2ncccc2c1O: true
COc1ccc(Cn2cc3c(c2-c2cc(OC)c(OC)c(OC)c2)CCc2cnoc2-3)cc1: false
Cn1ccc(Nc2nccc(Oc3ccc(C(=O)Nc4cccc(F)c4)c(Cl)c3)n2)c1: false
C=C(C)[C@@H]1CC[C@]2(C(=O)N3CCNCC3)CC[C@]3(C)[C@H](CC[C@@H]4[C@@]5(C)C/C(=C/c6ccncc6)C(=O)C(C)(C)[C@@H]5CC[C@]43C)[C@@H]12: false
CCN(CC)c1ccc2[nH]c3c(C(N)=O)cc(=O)c(=O)c=3oc2c1: false
CCN1CCN(CC(=O)N2c3cccc4cccc(c34)N(C(=O)CN3CCN(CC)CC3)C2c2cn(-c3ccccc3)nc2-c2cccc([N+](=O)[O-])c2)CC1: true
CCCCCCCC[C@@H](O)CC(=O)N[C@@H](CC(N)=O)C(=O)N[C@@H](CCC(N)=O)C(=O)N[C@@H](CC(=O)c1cc(C)cc(O)c1C(=O)c1c(O)cccc1O)CC(C)C: false
COC(=O)C1CCCN1C(=O)[C@@H]1CCCN1C(=O)[C@H](Cc1c[nH]c2ccccc12)NC(=S)Nc1cc(C(F)(F)F)cc(C(F)(F)F)c1 (stereo partly drawn): false

Please examine the following record next.
Query: For COc1ccc2c(c1)[nH]c(=O)c1c3cc(OC)ccc3cn21 , what call appears in the results of this test?
Response: false

====

Recorded growth for the following compounds
- Test system: BT-549 breast
- procedure.summary: NCI-60 one-dose screen, 48 h (100 = growth as untreated, 0 = no growth, -100 = all killed)
- stated.conditions: 10 µM unless noted
The panel holds about 83,000 compounds, 20% with a hit somewhere; the sample as a whole holds those more often.
Only the number, expressed in %, is required.

COc1ccc(-c2nc(-c3nc4cc(C)c(C)cc4[nH]3)cc3c2[nH]c2ccccc23)cc1: 70.9
O=S(=O)(NCCNc1nccc(-c2c(-c3ccc(O)cc3)nc3sccn23)n1)c1cccc2ccccc12: 108
Nc1nc(-c2ccccc2)c(CCCOc2ccc(NC(=O)CBr)cc2)c(=O)[nH]1: 100
O=C(Nc1ccc2c(c1)OCCO2)C(=O)c1c[nH]c2ccccc12: 44.2

Query: State the recorded growth for this entry: CSc1nc2c(c(=O)[nH]1)C(c1ccc(C)cc1)C=C(C(=O)O)N2 (configuration not stated)
Response: 93.6

Query: Param item: CCOC(=O)c1ccc(NC(=O)N2CC(C)OC(C)C2)cc1 (configuration not stated)
Response: 97.8

Query: Param item: CCCCCCN1CSC(=S)N(CCCCCC)C1
Response: 100

====

- Tested on: SN12C renal
- procedure.summary: NCI-60 one-dose screen, 48 h
- stated.conditions: 10 µM unless noted
Compounds without any hit were thinned out: in the full panel of roughly 83,000, 20% have a hit. Activity calls are given as the source filed them. How the source made its calls: active means growth percent below 10; inactive means the rest.
Write down the outcome that applies. Available outcomes: Yes for active, No for inactive

// known answers, use as guide
CN(C)c1nc2c(N)ncnc2n1C1OC(CO)C(O)C1O (stereo unspecified): No
Cc1ccc(Nc2nnc(-c3ccc(Cl)cc3)o2)c(C)c1: No
Oc1ccccc1/C=N/NC(=S)NC1CC2C=CC1C2 (stereo unspecified): No
O=C(c1c[nH]c(=O)c(-c2ccccc2)c1)c1ccccc1O: No
Cc1ccc(S(=O)(=O)c2nc(-c3ccccc3)oc2S(C)(=O)=O)cc1: Yes
CCCCCCCCCCCCCCCCNC(=O)OC(C)C: No

Query: For c1cc2[nH]ncc2cc1-c1nc2ccc3[nH]ncc3c2c2c1CCC2 , what call appears in the results of this test?
Response: No

Query: Param item: COC(=O)[C@]12CC[C@@H](C)[C@H](C)[C@@H]1C1=CC[C@@H]3[C@@]4(C)C(C=O)=C[C@@](C)(COC(=O)c5ccco5)[C@@H]4[C@H](O)C[C@@]3(C)[C@]1(C)CC2
Response: Yes

Query: Param item: O=C(O)C1CCCCN1c1nc(Cl)nc(Cl)n1 (stereo unspecified)
Response: No

Query: Param item: O=C(Nc1cccc(-n2cc(-c3ccncc3)c(-c3ccc(Cl)c(O)c3)n2)c1)Nc1ccc(Cl)c(C(F)(F)F)c1
Response: Yes

Query: Param item: COC(=O)c1cc(=O)nc(N/N=C/c2ccco2)s1
Response: No

Query: Param item: O=C(Nc1cccc(-n2cc(-c3ccncc3)c(-c3ccc(Cl)c(O)c3)n2)c1)Nc1cc(C(F)(F)F)cc(C(F)(F)F)c1
Response: Yes

Query: Param item: COc1cc(-c2nn(-c3cccc(NC(=O)Nc4cccc(C(F)(F)F)c4)c3)cc2-c2ccncc2)ccc1Cl
Response: Yes

Query: Param item: Cc1cccc(/C=N/Nc2cc(C)c3cccc(C)c3n2)n1
Response: No
